system_name: PI3K delta (Homo sapiens, UniProt O00329)
Sequence (O00329 whole entry, species assumed): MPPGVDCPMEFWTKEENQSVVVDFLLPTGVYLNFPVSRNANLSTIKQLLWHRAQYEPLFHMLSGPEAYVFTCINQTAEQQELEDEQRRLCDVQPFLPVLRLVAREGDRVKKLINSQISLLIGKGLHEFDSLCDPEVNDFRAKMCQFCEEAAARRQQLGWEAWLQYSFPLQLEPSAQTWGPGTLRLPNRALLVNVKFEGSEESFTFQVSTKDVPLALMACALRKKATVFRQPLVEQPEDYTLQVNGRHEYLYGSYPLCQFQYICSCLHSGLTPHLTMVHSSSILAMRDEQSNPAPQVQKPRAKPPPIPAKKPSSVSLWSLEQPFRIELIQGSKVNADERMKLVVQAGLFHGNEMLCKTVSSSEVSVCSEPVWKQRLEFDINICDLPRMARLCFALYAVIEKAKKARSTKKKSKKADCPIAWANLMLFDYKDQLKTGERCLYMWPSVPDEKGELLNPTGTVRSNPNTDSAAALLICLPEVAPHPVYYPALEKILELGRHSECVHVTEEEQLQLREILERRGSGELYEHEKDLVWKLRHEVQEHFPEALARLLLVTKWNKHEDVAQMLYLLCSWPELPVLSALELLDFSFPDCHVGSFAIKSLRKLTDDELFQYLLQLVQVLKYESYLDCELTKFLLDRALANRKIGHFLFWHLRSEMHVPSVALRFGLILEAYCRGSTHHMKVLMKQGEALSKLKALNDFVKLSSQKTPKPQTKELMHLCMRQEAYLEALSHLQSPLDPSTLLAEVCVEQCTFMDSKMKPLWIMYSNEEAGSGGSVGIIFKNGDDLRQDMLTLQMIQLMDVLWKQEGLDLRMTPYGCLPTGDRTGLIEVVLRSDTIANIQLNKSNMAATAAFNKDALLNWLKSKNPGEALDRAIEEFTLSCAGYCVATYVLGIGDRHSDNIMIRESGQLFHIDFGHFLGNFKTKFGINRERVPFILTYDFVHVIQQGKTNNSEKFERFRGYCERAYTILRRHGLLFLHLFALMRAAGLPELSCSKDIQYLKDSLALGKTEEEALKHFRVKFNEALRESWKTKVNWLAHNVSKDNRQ
Sequence (P27986 whole entry partner, species assumed): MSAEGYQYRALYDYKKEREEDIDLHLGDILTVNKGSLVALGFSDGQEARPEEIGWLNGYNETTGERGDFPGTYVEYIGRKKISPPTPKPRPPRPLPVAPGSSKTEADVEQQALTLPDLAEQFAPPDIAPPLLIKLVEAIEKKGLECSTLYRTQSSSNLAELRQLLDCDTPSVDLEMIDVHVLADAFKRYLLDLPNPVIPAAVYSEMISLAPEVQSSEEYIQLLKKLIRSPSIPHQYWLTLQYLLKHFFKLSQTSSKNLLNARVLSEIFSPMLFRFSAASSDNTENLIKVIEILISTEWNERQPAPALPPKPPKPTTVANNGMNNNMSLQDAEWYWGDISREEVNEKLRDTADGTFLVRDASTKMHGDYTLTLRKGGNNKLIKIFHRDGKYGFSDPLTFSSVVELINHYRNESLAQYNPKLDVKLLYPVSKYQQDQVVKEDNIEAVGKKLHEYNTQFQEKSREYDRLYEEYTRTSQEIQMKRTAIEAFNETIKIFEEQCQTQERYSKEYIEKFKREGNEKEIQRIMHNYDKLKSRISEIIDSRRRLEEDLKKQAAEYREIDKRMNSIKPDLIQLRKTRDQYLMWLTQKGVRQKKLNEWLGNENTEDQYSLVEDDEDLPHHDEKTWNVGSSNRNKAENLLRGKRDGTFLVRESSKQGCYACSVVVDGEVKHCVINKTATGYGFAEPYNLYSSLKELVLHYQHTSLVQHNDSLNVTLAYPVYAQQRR
experiment: Luciferase-based luminescence assay (KinaseGlo), PI3K delta enzymatic activity
reported_conditions: inhibition of enzymatic activity, KinaseGlo, 25 μM ATP; read-out: IC50 p110δ
pIC50: −log10 of the molar value.
Known pIC50 of a selection of molecules

Previously resolved entries follow.
molecule	pIC50
FC(F)c1nc2ccccc2n1-c1nc(NCc2ccccc2)nc(N2CCOCC2)n1 [Ref 1, reference compound]	6.70 to 7.00
CCN1CCC(c2ccccc2CC(C)(C)Nc2nc(N3CCOCC3)nc(-n3c(C(F)F)nc4ccccc43)n2)CC1 [Compound A70]	≥ 7.00
CC(C)(CNc1nc(N2CCOCC2)nc(-n2c(C(F)F)nc3ccccc32)n1)c1ccccc1 [Compound A29]	6.30 to 6.70

## Input Field: pIC50 (PI3K delta (Homo sapiens, UniProt O00329)). Entry: COc1ccccc1CC(C)(C)Nc1nc(N2CCOCC2)nc(-n2c(C(F)F)nc3ccccc32)n1 [Compound A19]
## Output ≥ 7.00

## Input Lookup CC[C@H](Nc1nc(N2CCOCC2)nc(-n2c(C(F)F)nc3ccccc32)n1)c1ccccc1 [Compound A5]
## Output 6.30 to 6.70

## Input Lookup CC(C)N1CCC(c2ccccc2CC(C)(C)Nc2nc(N3CCOCC3)nc(-n3c(C(F)F)nc4ccccc43)n2)CC1 [Compound A71]
## Output ≥ 7.00

## Input Lookup CC(C)(Nc1nc(N2CCOCC2)nc(-n2c(C(F)F)nc3ccccc32)n1)c1ccccc1 [Compound A7]
## Output 6.70 to 7.00
